Target: ABCC4 (Homo sapiens, UniProt O15439)
Sequence (O15439 1-1325): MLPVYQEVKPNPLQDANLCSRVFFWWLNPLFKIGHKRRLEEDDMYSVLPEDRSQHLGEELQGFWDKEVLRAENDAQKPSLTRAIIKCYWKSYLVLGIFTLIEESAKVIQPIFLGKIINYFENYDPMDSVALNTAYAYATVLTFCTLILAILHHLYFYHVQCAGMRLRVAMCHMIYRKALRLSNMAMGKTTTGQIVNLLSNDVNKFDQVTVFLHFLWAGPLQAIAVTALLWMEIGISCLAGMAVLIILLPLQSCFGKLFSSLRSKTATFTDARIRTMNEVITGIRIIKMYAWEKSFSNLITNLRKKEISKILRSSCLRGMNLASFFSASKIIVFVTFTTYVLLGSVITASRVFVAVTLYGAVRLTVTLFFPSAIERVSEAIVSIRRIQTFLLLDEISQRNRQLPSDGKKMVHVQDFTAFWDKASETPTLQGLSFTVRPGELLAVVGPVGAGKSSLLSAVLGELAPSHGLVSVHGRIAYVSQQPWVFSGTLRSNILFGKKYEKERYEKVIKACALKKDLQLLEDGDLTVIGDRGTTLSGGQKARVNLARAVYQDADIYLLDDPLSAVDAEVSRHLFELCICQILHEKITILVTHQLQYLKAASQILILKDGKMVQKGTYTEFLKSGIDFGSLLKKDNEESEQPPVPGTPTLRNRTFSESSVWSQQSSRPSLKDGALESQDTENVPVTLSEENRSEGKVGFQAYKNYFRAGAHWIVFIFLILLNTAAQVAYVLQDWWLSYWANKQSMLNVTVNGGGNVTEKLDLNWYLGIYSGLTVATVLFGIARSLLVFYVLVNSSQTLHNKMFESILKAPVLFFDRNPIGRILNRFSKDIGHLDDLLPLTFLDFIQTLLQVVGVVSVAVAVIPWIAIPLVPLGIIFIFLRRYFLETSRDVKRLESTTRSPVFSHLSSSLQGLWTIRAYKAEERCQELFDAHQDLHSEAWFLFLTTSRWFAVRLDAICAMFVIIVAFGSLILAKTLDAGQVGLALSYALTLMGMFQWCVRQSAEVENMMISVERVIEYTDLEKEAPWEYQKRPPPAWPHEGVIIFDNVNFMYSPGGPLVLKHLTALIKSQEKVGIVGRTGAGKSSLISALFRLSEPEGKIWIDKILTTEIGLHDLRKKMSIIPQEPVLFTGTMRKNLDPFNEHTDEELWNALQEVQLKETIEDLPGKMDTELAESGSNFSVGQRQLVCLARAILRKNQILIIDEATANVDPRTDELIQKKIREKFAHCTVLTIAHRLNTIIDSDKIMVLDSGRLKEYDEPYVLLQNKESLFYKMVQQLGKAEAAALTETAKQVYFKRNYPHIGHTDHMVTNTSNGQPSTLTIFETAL
Assay: biochemical
Assay type: biochemical
Conditions: ABCC4 IC50, 37°C; cAMP-efflux, inside-out vesicles, 20 µM 3H-cAMP, 60 min
measurement name: pIC50
Quick note: pIC50 values are minus log10 of concentrations in mol/L.

QUERY: # input molecule: `Cc1[nH]c(=O)c(C#N)cc1-c1ccncc1` ; wanted: its pIC50
RESULT: 4.23

----------
biological target: PDE5 (Homo sapiens, UniProt O76074); construct: purchased Sigma-Aldrich, St. Louis, United States; experiment: Phosphodiesterase assay: inhibition of cGMP hydrolysis by recombinant PDE5; assay type: biochemical; conditions: 28°C; 5 µM cGMP, 30 min
Give measured pIC50 for each item. Keep answers brief.
Friendly reminder that pIC50 comes from taking -log10 of the concentration in mol/L.

QUERY: Which pIC50 is listed for `Nc1cc(-c2ccncc2)c[nH]c1=O` ?
RESULT: 4.02

QUERY: Please report the recorded pIC50 for `C[C@@H]1CC(=O)NN=C1c1ccc(NN=C(C#N)C#N)cc1` .
RESULT: 3.74
